System: human colon carcinoma HT29
EXPERIMENT SUMMARY: Proliferation assay (IC50) under aerobic and hypoxic conditions, HT29
Format: cell-based
EXPERIMENTAL PARAMETERS: hypoxic cytotoxicity ratio = IC50 aerobic/IC50 hypoxic
Classification field: enter class 1 for HCR values not below 60, class 0 for values below it.

# MOLECULE, ASSIGNED LABEL
rows = [
    ("[O-][n+]1cn[n+]([O-])c2cc3c(cc21)CCC3", "class 1"),
    ("[O-][n+]1nc(CCCN2CCOCC2)[n+]([O-])c2cc3c(cc21)CCO3", "class 0"),
    ("[O-][n+]1nc(NCCCN2CCOCC2)[n+]([O-])c2cc3c(cc21)OCC3", "class 0"),
    ("CN(C)CCNc1n[n+]([O-])c2cc3c(cc2[n+]1[O-])OCO3", "class 0"),
    ("CN(C)CCCc1n[n+]([O-])c2cc3c(cc2[n+]1[O-])CCC3", "class 1"),
    ("CC1Cc2cc3c(cc2C1)[n+]([O-])c(NCCCN1CCOCC1)n[n+]3[O-] (stereo not drawn)", "class 0"),
    ("CC1CCCC(C)N1CCNc1n[n+]([O-])c2cc3c(cc2[n+]1[O-])CCC3 (stereo not drawn)", "class 0"),
    ("COC1CCN(CCCNc2n[n+]([O-])c3cc4c(cc3[n+]2[O-])CCC4)CC1", "class 1"),
]
